- Tested on: IGROV-1
- method: NCI tumour cell line growth inhibition, 48 h
Calls of active or inactive are those of the source. Cut-off read from the data, not from the text of the source: active = GI50 up to about 1.1 µM and inactive = higher.
quantity_measured: GI50

Recorded results for 5 compounds are shown here.
[[record]]
compound = "CC(/C=C/NNC1=NN=C(c2ccccc2)C(c2ccccc2)N1)Sc1ccccc1N (stereo unspecified)"
quantity_measured = "GI50"
measurement = "14.4 µM (inactive)"

[[record]]
compound = "Nc1ncn([C@H]2C[C@H](O)[C@@H](CO)O2)c(=O)n1 [DECITABINE]"
quantity_measured = "GI50"
measurement = "102 µM (inactive)"

[[record]]
compound = "O=C1CCCCN1C(=O)c1ccc([N+](=O)[O-])cc1"
quantity_measured = "GI50"
measurement = "> 100 µM (inactive)"

[[record]]
compound = "CCOC(=O)c1c(SC)nc(-c2ccc(Cl)cc2)sc1=N.[O-][Cl+3]([O-])([O-])O"
quantity_measured = "GI50"
measurement = "20.8 µM (inactive)"

[[record]]
compound = "BrC12C3C4C5C(C(C43)C13OCCO3)C52 (stereo unspecified)"
quantity_measured = "GI50"
measurement = "> 100 µM (inactive)"


In: If you can, please state the reported GI50 value of OC1(c2ccccc2)C2CC=CC2C1(c1ccccc1)c1ccccc1 (stereo unspecified) .
Out: 20.1 µM (inactive)

In: If you can, please state the reported GI50 value of C=C1C(=O)OC2/C=C(\C=O)CC/C=C(\C)C(O)C[C@@H]12 (stereo partly specified) .
Out: 17.5 µM (inactive)

In: If you can, please state the reported GI50 value of COc1ccc(-c2ccccc2)c(N/N=C2\CCCNC2=O)c1 .
Out: > 100 µM (inactive)

* * *

Each record here notes measured GI50.
- Tested on: HOP-62
- method: NCI tumour cell line growth inhibition, 48 h
Active and inactive are the calls of the source. Rule as the data show it: active = GI50 up to about 1.1 µM and inactive = higher.

[[record]]
compound = "CCOC(=O)Nn1cnnc1C"
measurement = "> 100 µM (inactive)"


In: Fill in the recorded GI50 for this compound, with HOP-62 as test system: CC(/C=C/c1ccc([N+](=O)[O-])o1)=N/N1CC(CN2CCOCC2)OC1=O (stereo not given)
Out: 26.9 µM (inactive)

In: Fill in the recorded GI50 for this compound, with HOP-62 as test system: O=[N+]([O-])c1ccc(/N=N/c2c(O)ccc3cc(S(=O)(=O)O)ccc23)cc1
Out: > 100 µM (inactive)

In: Fill in the recorded GI50 for this compound, with HOP-62 as test system: COc1ccc2[nH]c3c(c2c1)[C@H]1CCC(C(C)(C)C)C[C@H]1[C@H]1C(=O)N(c2ccccc2)C(=O)[C@@H]31 (stereo not given in full)
Out: 11.1 µM (inactive)

In: Fill in the recorded GI50 for this compound, with HOP-62 as test system: O=CC[C@H]1CCc2ccccc2C12CCC(=O)CC2
Out: > 100 µM (inactive)

* * *

- System: SNB-75
- method: NCI tumour cell line growth inhibition, 48 h
Activity calls are given as the source filed them. No stated cut-off is given here; in the data, active = GI50 up to about 1.1 µM and inactive = higher.
quantity_measured: GI50

Recorded results for 3 compounds are shown here.
[[record]]
compound = "CC(=O)NNc1nc(C)c(C(/C=C/c2ccc([N+](=O)[O-])cc2)=N/NC(N)=O)s1"
quantity_measured = "GI50"
measurement = "> 100 µM (inactive)"

[[record]]
compound = "COC(=O)/C(C=O)=C/Sc1ccccc1"
quantity_measured = "GI50"
measurement = "18.5 µM (inactive)"

[[record]]
compound = "C[C@H]1CC[C@@H]2[C@@H](C)C[C@H]3[C@@H]4C(C)(C)OC(=O)[C@]4(C)C(=O)[C@@]23C1=O"
quantity_measured = "GI50"
measurement = "> 100 µM (inactive)"


In: Fill in the recorded GI50 for this compound, with SNB-75 as test system: Cc1ccc2nc(NC(=O)C(=O)C(C#N)c3nc4ccccc4s3)sc2c1 (stereo not drawn)
Out: 40.6 µM (inactive)

In: Fill in the recorded GI50 for this compound, with SNB-75 as test system: CCCCc1nccc2c(C)c3[nH]c4ccccc4c3cc12
Out: 5.93 µM (inactive)

In: Fill in the recorded GI50 for this compound, with SNB-75 as test system: N=C(N)NCC1CCCCCCN1 (stereo not drawn)
Out: > 100 µM (inactive)

In: Fill in the recorded GI50 for this compound, with SNB-75 as test system: CCN(CC)C(=O)CCn1ccc(=O)[nH]c1=O
Out: 43.1 µM (inactive)

In: Fill in the recorded GI50 for this compound, with SNB-75 as test system: Clc1cc(Cl)ncn1
Out: > 100 µM (inactive)

In: Fill in the recorded GI50 for this compound, with SNB-75 as test system: N#Cc1c(N)c(C(=O)O)nn(-c2cccc(C(F)(F)F)c2)c1=O
Out: 14 µM (inactive)

In: Fill in the recorded GI50 for this compound, with SNB-75 as test system: CCOC(=O)c1csc(CCCCCCc2nc(C(=O)OCC)cs2)n1
Out: 21.1 µM (inactive)

In: Fill in the recorded GI50 for this compound, with SNB-75 as test system: Cc1c(Cl)cccc1/N=N/C(=O)NNc1cccc(Cl)c1C
Out: 18 µM (inactive)

In: Fill in the recorded GI50 for this compound, with SNB-75 as test system: Cc1ccc(NCC2(/N=C/c3ccccc3)OC(CO)C(O)C2O)cc1 (stereo not drawn)
Out: 26.2 µM (inactive)

In: Fill in the recorded GI50 for this compound, with SNB-75 as test system: NCCSc1cc(O)c2c(c1N)C(=O)c1ccccc1C2=O
Out: 67.6 µM (inactive)

In: Fill in the recorded GI50 for this compound, with SNB-75 as test system: CCCCCOc1ccc(NC2=C(Cl)C(=O)c3c(O)ccc(O)c3C2=O)cc1
Out: > 10 µM (inactive)

In: Fill in the recorded GI50 for this compound, with SNB-75 as test system: NCc1ccc(-c2ccc(CN)s2)s1
Out: > 100 µM (inactive)

In: Fill in the recorded GI50 for this compound, with SNB-75 as test system: CCC1CN2CCc3cc(OC)c(OC)cc3C2CC1CC1c2cc(OC)c(OC)cc2CCN1C(=O)C(Cc1c[nH]c2ccccc12)NC(=O)OC(C)(C)C (stereo not drawn)
Out: 2.59 µM (inactive)

In: Fill in the recorded GI50 for this compound, with SNB-75 as test system: N#C/C(=C/C=C/c1ccco1)C(N)=O
Out: > 10 µM (inactive)

* * *

Each record here notes measured GI50.
- Test system: HCT-116
- method: NCI tumour cell line growth inhibition, 48 h
Active and inactive are the calls of the source. Cut-off read from the data, not from the text of the source: active = GI50 up to about 1.1 µM and inactive = higher.

[[record]]
compound = "Nc1ncn([C@H]2C[C@H](O)[C@@H](CO)O2)c(=O)n1"
quantity_measured = "GI50"
measurement = "48.9 µM (inactive)"

[[record]]
compound = "NS(=O)(=O)c1nnc(NS(=O)(=O)c2cccc3cccnc23)s1"
quantity_measured = "GI50"
measurement = "> 100 µM (inactive)"


In: If you can, please state the reported GI50 value of Nc1ncc(C=O)c(NCC2(CO)CCC2)n1 .
Out: 36.6 µM (inactive)

In: If you can, please state the reported GI50 value of O=S(=O)(O)c1cc(S(=O)(=O)O)c2c(/N=N/c3ccc(/N=N/c4ccccc4)cc3)c(O)ccc2c1 .
Out: > 100 µM (inactive)

In: If you can, please state the reported GI50 value of COC(=O)C(=O)C(C(=O)C(=O)Nc1ccc(Cl)c(Cl)c1)c1nc2ccc(C(=O)c3ccccc3)cc2nc1O (stereo not given) .
Out: 61.4 µM (inactive)

In: If you can, please state the reported GI50 value of Cc1nn(C(=O)Cc2ccccc2)c2c1C(c1ccc([N+](=O)[O-])cc1)SC(=N)N2 (stereo not given) .
Out: > 100 µM (inactive)

In: If you can, please state the reported GI50 value of N#Cc1c(C#N)c(-c2ccccc2)n(Cc2ccccc2)c1N .
Out: > 100 µM (inactive)

In: If you can, please state the reported GI50 value of Nc1nc(Cl)c(N)c(NC23CC4CC(CC(C4)C2)C3)n1 .
Out: 1.58 µM (inactive)

In: If you can, please state the reported GI50 value of COc1ccc(-c2cn3c(nc4ccccc43)c(/C=C/c3cccs3)n2)cc1 .
Out: 51.2 µM (inactive)

In: If you can, please state the reported GI50 value of CCCCCCCCCCCC[S+](C)C .
Out: 6.22 µM (inactive)

* * *

- Tested on: Malme-3M
- method: NCI tumour cell line growth inhibition, 48 h
Activity calls are given as the source filed them. No stated cut-off is given here; in the data, active = GI50 up to about 1.1 µM and inactive = higher.
Assign a class; possible classes are true = active, false = inactive

Example results:
[[record]]
compound = "O=C(/C=C/c1ccc(-c2ccccc2)cc1)NCc1ccc(C(=O)NCCc2c[nH]c3ccccc23)cc1"
tested_target = "Malme-3M"
group = "false"

[[record]]
compound = "CCSc1nnc(-c2ccccc2)nc1Cc1ccc(OC)cc1"
tested_target = "Malme-3M"
group = "false"

[[record]]
compound = "Cc1ccc(OCC2OC(n3cnc4c(N(C)C)nc(Br)nc43)CC2Oc2ccc(C)cc2)cc1 (centres undefined)"
tested_target = "Malme-3M"
group = "false"

[[record]]
compound = "N=C(N)NS(=O)(=O)c1ccc(NC(=O)c2ccc3nc4ccccc4c(Nc4ccc(S(N)(=O)=O)cc4)c3c2)cc1"
tested_target = "Malme-3M"
group = "false"

[[record]]
compound = "COc1cc([C@@H]2c3cc4c(cc3[C@@H](Nc3ccc(C(=O)N[C@H]5CCc6cc(OC)c(OC)c(OC)c6-c6ccc(SC)c(=O)cc65)cc3)[C@H]3COC(=O)[C@H]23)OCO4)cc(OC)c1O"
tested_target = "Malme-3M"
group = "true"


In: Hi, do you know how Cc1ccc(C)c(/C(=N\N=C(N)N)C2CC2)c1 came out in this test?
Out: false

In: Hi, do you know how Clc1ccc2cccc3c2c1C1OC3c2ccccc21 (centres undefined) came out in this test?
Out: false

In: Hi, do you know how NC1=NS(=O)(=O)N=C(N)C1=Cc1ccc([N+](=O)[O-])o1 came out in this test?
Out: false

In: Hi, do you know how O=S1(=O)OCCOS(=O)(=O)C1(Br)Br came out in this test?
Out: false
